Readings of amyloid nucleation score for the listed substances
method summary: amyloid nucleation score (Sup35N fusion, yeast selection) (log enrichment); library NNK2; higher = more nucleation; inactive = no reads after selection;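 note: zero at mode of non-aggregating sequences after 7 days selection at 30°C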
Just the number, please, no unit after it.

Use the examples below as a reference point.
[[record]]
substance = "WSEYRFRHIPKLKKCYQVD"
test_value = 0.175

[[record]]
substance = "DTWVLDIMYFSLRYWVFVSV"
test_value = 0.228

[[record]]
substance = "TFDVTRI"
test_value = -0.311

[[record]]
substance = "SFLTYKARTMSSKLVKSIML"
test_value = -0.563


Exercise: # get_value(readout='amyloid nucleation score', item= HIGILTT )
Key: 1.64

Exercise: Request: CDLLVPQRYSAGLPLPVVKE
Key: 1.8

Exercise: Request: VHQYDSVSAVHADCMG
Key: -1.27

Exercise: Request: QMQYFKATYSI
Key: -0.613

Exercise: Request: VFDEVVVDTLKWWSCVSAGI
Key: -0.484

Exercise: Request: CLMWVISNSYNECHLGEVGQ
Key: 6.56

Exercise: Request: DSASVRVVIADEDLSAVVRA
Key: 1.72

Exercise: Request: WGADSYYMCTKLLGSDCGSN
Key: 0.453

Exercise: Request: RECFLNPWSVYVRFS
Key: -0.086

Exercise: Request: VRSGTLFARTKWEESSCHLF
Key: 0.641

Exercise: Request: SRHTIVTGRWLFRDYQSLLW
Key: 0.19

Exercise: Request: LDITVCMRFKAPAIIWAYYF
Key: -0.657

Exercise: Request: LMKNEFSRYHTSCVVRGNSL
Key: 0.334

====

method summary: amyloid nucleation score (Sup35N fusion, yeast selection) (log enrichment); library NNK1; higher = more nucleation; inactive = no reads after selection
measured attribute: amyloid nucleation score
Just the number, please, no unit after it.

[[record]]
substance = "LSYMSLFW"
measured_attribute = "amyloid nucleation score"
test_value = 1.94

[[record]]
substance = "GLVRDTTTMNVSLSVMSSAR"
measured_attribute = "amyloid nucleation score"
test_value = 1.39

[[record]]
substance = "VCGGETLPRVVSNGGRSPRV"
measured_attribute = "amyloid nucleation score"
test_value = 0.602


Exercise: # get_value(readout='amyloid nucleation score', item= YVSEEMNGLVMYQSNWGSVT )
Key: 0.224

Exercise: Request: CIFAYKCSIYERESL
Key: 0.776

Exercise: Request: SLLDMIYVIDTTTKNCILSK
Key: 0.983

Exercise: Request: YGSMVMDVEAR
Key: -0.001

====

method summary: amyloid nucleation score (Sup35N fusion, yeast selection) (log enrichment); library NNK2; higher = more nucleation; inactive = no reads after selection
measured attribute: amyloid nucleation score
Just the number, please, no unit after it.

Exercise: # get_value(readout='amyloid nucleation score', item= SFLKSMMAPIYKCSVWCSML )
Key: -0.819

Exercise: Request: TVHRLRNVCLL
Key: 2.51

Exercise: Request: SYCHCASGPFSLNPYSLLVC
Key: 0.716

Exercise: Request: SSQGLPDNGTRPLGWKYR
Key: 0.417

Exercise: Request: GSTVKYWCMPGSSLLLHCVY
Key: 0.611

Exercise: Request: VISSRGALCRRAKQ
Key: 0.409

====

method summary: amyloid nucleation score (Sup35N fusion, yeast selection) (log enrichment); library NNK1; higher = more nucleation; inactive = no reads after selection
# cutoff 0.8 applies to amyloid nucleation score; >= gives 1, < gives -1

Solved entries:
[[record]]
substance = "RYRDYSRRIDCLCYVSVPVY"
assigned_label = -1

[[record]]
substance = "PLLGASSRYDHAMLCGNRTF"
assigned_label = -1

[[record]]
substance = "PVLSTYFHAKLQNTWMPGNR"
assigned_label = -1

[[record]]
substance = "RLFWLRNLPLWASYK"
assigned_label = -1


Exercise: Does the substance PSYHGYLGLSNPVRYRMCV have recorded amyloid nucleation score that is 0.8 or more?
Key: -1

Exercise: Request: DILCASPTLLAE
Key: -1

Exercise: Request: DYPCRRGDLRRG
Key: -1

Exercise: Request: LTGASSNTSVLVNWGVASYC
Key: 1

Exercise: Request: WNPIAIYEGDGMQDAFCADL
Key: -1

Exercise: Request: GYISRHNAGSSAPVNVVRLR
Key: -1

====

method summary: amyloid nucleation score (Sup35N fusion, yeast selection) (log enrichment); library NNK1; higher = more nucleation; inactive = no reads after selection
measured attribute: amyloid nucleation score

Use the examples below as a reference point.
[[record]]
substance = "GLNDYIKVFLYFDSVNRYLD"
test_value = -0.694

[[record]]
substance = "IRCDKLISNSNMLGDKLTL"
test_value = "inactive"

[[record]]
substance = "RLASMREHLVWYRRGFRVCC"
test_value = 0.725

[[record]]
substance = "LVPPVFRP"
test_value = -1.11

[[record]]
substance = "FSSGVILSGRRRSLK"
test_value = -0.437

[[record]]
substance = "KAGVSVLYLHMFLF"
test_value = -0.303

[[record]]
substance = "LWNLVLKCD"
test_value = -0.215

[[record]]
substance = "LNCRGVLDRTKSRVSHNNES"
test_value = 3.38


Next substance, amyloid nucleation score to be filled in.
Exercise: # get_value(readout='amyloid nucleation score', item= TGMWPFNRRCITIRTVSRNL )
Key: 0.467

====

method summary: amyloid nucleation score (Sup35N fusion, yeast selection) (log enrichment); library NNK2; higher = more nucleation; inactive = no reads after selection
measured attribute: amyloid nucleation score
Just the number, please, no unit after it.

Exercise: # get_value(readout='amyloid nucleation score', item= GGTIKALYNSSGTRRMSKLR )
Key: -0.224

Exercise: Request: NMFRIVASTY
Key: 0.598

Exercise: Request: WYRPTSYRRKHKGDISLDLG
Key: -0.226

Exercise: Request: IYEQPG
Key: 0.012

Exercise: Request: TQINEVLL
Key: -0.722

Exercise: Request: PVLDGHCSWGGLSTAEETDR
Key: 0.29

Exercise: Request: EELKYYSISVMLRGRHALLI
Key: -0.894

Exercise: Request: QVTSNRSTGRRYILNQMC
Key: -0.337

Exercise: Request: PHLFFDTFV
Key: 3.98

====

method summary: amyloid nucleation score (Sup35N fusion, yeast selection) (log enrichment); library NNK3; higher = more nucleation; inactive = no reads after selection
measured attribute: amyloid nucleation score

Use the examples below as a reference point.
[[record]]
sequence_chain = "KHFLQVVRSSNRTVSARFPL"
measured_attribute = "amyloid nucleation score"
test_value = "inactive"

[[record]]
sequence_chain = "IDSLSAIGKSWTQGESRSDR"
measured_attribute = "amyloid nucleation score"
test_value = "inactive"

[[record]]
sequence_chain = "LAYVHMGGIARWLC"
measured_attribute = "amyloid nucleation score"
test_value = "inactive"

[[record]]
sequence_chain = "YIFDMSTGQDSMVY"
measured_attribute = "amyloid nucleation score"
test_value = "inactive"

[[record]]
sequence_chain = "MRSYFEDFCGFQAIRS"
measured_attribute = "amyloid nucleation score"
test_value = 1.07

[[record]]
sequence_chain = "NGINNCSEIKHVCTGLANPV"
measured_attribute = "amyloid nucleation score"
test_value = "inactive"

[[record]]
sequence_chain = "DSLYWCSPFNGHCSDNNTQN"
measured_attribute = "amyloid nucleation score"
test_value = "inactive"

[[record]]
sequence_chain = "LVPVMTFNWPKPSNGVSAVA"
measured_attribute = "amyloid nucleation score"
test_value = -0.413


Next sequence, amyloid nucleation score to be filled in.
Exercise: # get_value(readout='amyloid nucleation score', item= VFCPTWFTMGGVCIAVAHLV )
Key: 0.486

====

method summary: amyloid nucleation score (Sup35N fusion, yeast selection) (log enrichment); library NNK3; higher = more nucleation; inactive = no reads after selection
measured attribute: amyloid nucleation score

Use the examples below as a reference point.
[[record]]
substance = "VKGIEVNRLMFEERISGCYV"
measured_attribute = "amyloid nucleation score"
test_value = "inactive"

[[record]]
substance = "GCSRHYKFS"
measured_attribute = "amyloid nucleation score"
test_value = "inactive"

[[record]]
substance = "LGSMAINCNERCITWCHRFI"
measured_attribute = "amyloid nucleation score"
test_value = 0.668

[[record]]
substance = "SLPCSKCAVKLFL"
measured_attribute = "amyloid nucleation score"
test_value = "inactive"

[[record]]
substance = "FHRTEGCECVASLKVARGVV"
measured_attribute = "amyloid nucleation score"
test_value = 0.223


Exercise: # get_value(readout='amyloid nucleation score', item= AWWYGLSMYIKKCILGSRFE )
Key: inactive

====

method summary: amyloid nucleation score (Sup35N fusion, yeast selection) (log enrichment); library NNK1; higher = more nucleation; inactive = no reads after selection
measured attribute: amyloid nucleation score
Just the number, please, no unit after it.

Use the examples below as a reference point.
[[record]]
substance = "SNSSVSW"
measured_attribute = "amyloid nucleation score"
test_value = 0.717

[[record]]
substance = "VTCWPDICRSFYMIVLHCFR"
measured_attribute = "amyloid nucleation score"
test_value = 0.141

[[record]]
substance = "FSTHSIWSLRVSNSVSLFNE"
measured_attribute = "amyloid nucleation score"
test_value = 0.178


Next substance, amyloid nucleation score to be filled in.
Exercise: # get_value(readout='amyloid nucleation score', item= ARFMSLTRSSACETNVGVYL )
Key: 0.608
